EXPERIMENT: Selectivity index, ratio of CC50 for human Huh7 cells to EC50 for DENV2 New Guinea C
Assay type: toxicity
STATED CONDITIONS: read-out: Ratio CC50/EC50
EXPERIMENTAL READOUT: selectivity ratio

Entry COc1cc(Nc2cc(C)nc3ccc(Br)cc23)cc(OC)c1OC needs its selectivity ratio filled in; supply it. 10

====

EXPERIMENT: Cytotoxicity against human Huh-7 cells infected with DENV2 by alamar blue assay
Assay type: cell-based
EXPERIMENTAL READOUT: CC50

Consider the following illustrative entries.
Entry COc1cc(Nc2cc(C)nc3ccccc23)cc(OC)c1OC needs its CC50 filled in; supply it. > 10 µM

Entry COc1cc(Nc2ncnc3ccccc23)cc(OC)c1OC needs its CC50 filled in; supply it. > 10 µM

Entry COc1cc(Nc2ncnc3cc(Br)ccc23)cc(OC)c1OC needs its CC50 filled in; supply it. > 10 µM

Further cases:
Entry COc1cc(Nc2ncnc3ccc(Cl)cc23)cc(OC)c1OC needs its CC50 filled in; supply it. > 10 µM

Entry COc1ccc2nc(C)cc(Nc3cc(OC)c(OC)c(OC)c3)c2c1 needs its CC50 filled in; supply it. > 10 µM

Entry COc1cc(Nc2ncnc3ccc(C#N)cc23)cc(OC)c1OC needs its CC50 filled in; supply it. > 10 µM

Entry COc1ccc2c(Nc3cc(OC)c(OC)c(OC)c3)ncnc2c1 needs its CC50 filled in; supply it. > 10 µM

Entry COc1cc(Nc2cc(C)nc3cc(C(F)(F)F)ccc23)cc(OC)c1OC needs its CC50 filled in; supply it. > 10 µM

Entry COc1cc(Nc2ccnc3ccc(C(C)(C)C)cc23)cc(OC)c1OC needs its CC50 filled in; supply it. > 10 µM

====

EXPERIMENT: Cytotoxicity against human Huh-7 cells infected with DENV2 by alamar blue assay
Assay type: cell-based
CC50 values, listed per item

Entry COc1cc(Nc2ccnc3cc(F)c(F)cc23)cc(OC)c1OC needs its CC50 filled in; supply it. 5.5 µM

Entry COc1cc(Nc2c(C#N)cnc3cc(I)ccc23)cc(OC)c1OC needs its CC50 filled in; supply it. > 10 µM

Entry COc1cc(Nc2cc(C)nc3ccc(F)cc23)cc(OC)c1OC needs its CC50 filled in; supply it. > 10 µM

Further cases:
Entry COc1cc(Nc2ncnc3cc(I)ccc23)cc(OC)c1OC needs its CC50 filled in; supply it. 5.8 µM

Entry COc1cc(Nc2ncnc3ccc(C)cc23)cc(OC)c1OC needs its CC50 filled in; supply it. > 10 µM

Entry COc1cc(Nc2ccnc3ccc(Cl)cc23)cc(OC)c1OC needs its CC50 filled in; supply it. > 10 µM

Entry COc1cc(Nc2ncnc3cc(C#N)ccc23)cc(OC)c1OC needs its CC50 filled in; supply it. > 10 µM

Entry COc1cc(Nc2c(C#N)cnc3ccccc23)cc(OC)c1OC needs its CC50 filled in; supply it. > 10 µM

Entry COc1cc(Nc2c(C#N)cnc3cc(Cl)ccc23)cc(OC)c1OC needs its CC50 filled in; supply it. > 10 µM

Entry COc1cc(Nc2ccnc3ccc(S(C)(=O)=O)cc23)cc(OC)c1OC needs its CC50 filled in; supply it. > 10 µM

Entry COc1ccc2ncnc(Nc3cc(OC)c(OC)c(OC)c3)c2c1 needs its CC50 filled in; supply it. > 10 µM
